Target: Carboxypeptidase B (Homo sapiens)
Sequence (P15086 whole entry): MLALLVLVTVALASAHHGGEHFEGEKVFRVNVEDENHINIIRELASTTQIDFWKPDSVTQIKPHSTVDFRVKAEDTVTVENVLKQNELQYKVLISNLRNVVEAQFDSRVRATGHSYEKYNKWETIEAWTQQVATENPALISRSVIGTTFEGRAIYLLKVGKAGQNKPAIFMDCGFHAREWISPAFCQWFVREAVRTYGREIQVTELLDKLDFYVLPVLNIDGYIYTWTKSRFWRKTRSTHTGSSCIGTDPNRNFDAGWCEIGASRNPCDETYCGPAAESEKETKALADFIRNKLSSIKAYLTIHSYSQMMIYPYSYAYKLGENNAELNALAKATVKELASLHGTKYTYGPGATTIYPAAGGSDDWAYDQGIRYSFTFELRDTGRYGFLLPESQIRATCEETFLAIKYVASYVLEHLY
Assay: Inhibition of human recombinant carboxypeptidase B expressed in Saccharomyces cerevisiae by microtiter plate method
Entries and their Ki values follow.
Kindly answer with a numeric value in µM, unit omitted.

Sample answers from the record:
>  <smiles_input>
O=C(O)CCNC(=O)[C@@H]1CC[C@@H]1NC(=O)OCc1ccccc1

>  <units_text>
µM

>  <Ki>
43

$$$$
>  <smiles_input>
COC(=O)CNC(=O)[C@@H]1CC[C@@H]1NC(=O)OCc1ccccc1

>  <units_text>
µM

>  <Ki>
500

$$$$
>  <smiles_input>
COC(=O)CCNC(=O)[C@@H]1CC[C@@H]1NC(=O)OCc1ccccc1

>  <units_text>
µM

>  <Ki>
400

$$$$
>  <smiles_input>
COC(=O)[C@@H]1CC[C@@H]1NC(=O)[C@@H]1CC[C@@H]1NC(=O)OCc1ccccc1

>  <units_text>
µM

>  <Ki>
275

$$$$
>  <smiles_input>
COC(=O)[C@H]1CC[C@H]1NC(=O)[C@H]1CC[C@H]1NC(=O)OCc1ccccc1

>  <units_text>
µM

>  <Ki>
70

$$$$

Now for a further compound.
Record request: Ki value, item COC(=O)CCCCNC(=O)[C@H]1CC[C@H]1NC(=O)OCc1ccccc1
410

All values here come from ChEMBL document CHEMBL1137763.
